Target: Acetylcholinesterase from electric eel (eeAChE, type VI-S) (Electrophorus electricus)
Sequence (O42275 24-633): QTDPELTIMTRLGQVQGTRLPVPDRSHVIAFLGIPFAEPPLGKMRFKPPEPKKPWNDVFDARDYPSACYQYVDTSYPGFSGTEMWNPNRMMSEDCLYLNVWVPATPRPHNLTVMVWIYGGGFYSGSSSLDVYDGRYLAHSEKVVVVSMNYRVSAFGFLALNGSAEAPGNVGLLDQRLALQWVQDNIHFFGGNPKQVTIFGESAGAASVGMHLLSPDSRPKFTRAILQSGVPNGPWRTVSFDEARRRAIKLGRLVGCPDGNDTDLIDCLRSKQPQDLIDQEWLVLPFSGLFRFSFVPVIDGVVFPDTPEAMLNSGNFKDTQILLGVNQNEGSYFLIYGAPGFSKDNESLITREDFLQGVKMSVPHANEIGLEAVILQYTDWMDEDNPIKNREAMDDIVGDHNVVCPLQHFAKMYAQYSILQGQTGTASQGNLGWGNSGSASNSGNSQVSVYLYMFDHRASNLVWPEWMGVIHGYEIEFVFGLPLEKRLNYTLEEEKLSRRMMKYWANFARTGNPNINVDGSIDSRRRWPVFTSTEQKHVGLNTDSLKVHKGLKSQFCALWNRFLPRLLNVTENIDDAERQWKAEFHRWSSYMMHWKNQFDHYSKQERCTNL
Experiment: biochemical
So I've got a bunch of compounds here, and I need their pIC50 values.
Numbers only, as −log10 of the molar value.

// below: answered compounds
1. Cc1ccc(Cn2n[n+](C)c3ccc4sccc4c32)cc1 ... 4.41
2. Cc1ccc(Cn2n[n+](C)c3ccc4sc(C)cc4c32)cc1 ... 3.68
3. C[n+]1nn(Cc2ccc(Cl)cc2)c2c3ccsc3ccc21 ... 5.36

Tested on Acetylcholinesterase from electric eel (eeAChE, type VI-S) (Electrophorus electricus): C[n+]1nn(Cc2cccc(Cl)c2)c2c3ccsc3ccc21 . Observed pIC50: 4.91

* * *

Biological target: butyrylcholinesterase from equine serum (eqBChE, E.C. 3.1.1.8) (Equus caballus, UniProt P81908)
Construct: butyrylcholinesterase from equine serum (eqBChE, E.C. 3.1.1.8); purchased Sigma Aldrich; host or cells: equine serum
Sequence (P81908 whole entry): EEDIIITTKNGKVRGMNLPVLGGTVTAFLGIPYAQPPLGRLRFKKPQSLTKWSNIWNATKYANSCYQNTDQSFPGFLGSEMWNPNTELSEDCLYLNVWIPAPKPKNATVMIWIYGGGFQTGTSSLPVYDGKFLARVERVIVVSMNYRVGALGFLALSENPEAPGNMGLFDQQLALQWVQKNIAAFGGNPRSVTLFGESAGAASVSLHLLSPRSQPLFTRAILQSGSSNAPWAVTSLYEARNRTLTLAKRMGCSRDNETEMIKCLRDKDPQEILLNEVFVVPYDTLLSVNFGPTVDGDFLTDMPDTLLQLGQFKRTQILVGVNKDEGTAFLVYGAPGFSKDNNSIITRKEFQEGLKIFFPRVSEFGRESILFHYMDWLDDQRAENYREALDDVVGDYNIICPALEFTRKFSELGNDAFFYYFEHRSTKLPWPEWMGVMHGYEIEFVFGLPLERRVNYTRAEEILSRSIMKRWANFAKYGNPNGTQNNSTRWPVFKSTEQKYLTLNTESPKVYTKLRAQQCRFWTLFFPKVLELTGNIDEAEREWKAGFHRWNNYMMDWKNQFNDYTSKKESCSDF
Assay: biochemical
readout: IC50 (nM)
One number for each entry, in nM.

As a guide, the following entries are already answered.
1) Cc1ccc(Cn2n[n+](C)c3ccc4sc(C)cc4c32)cc1 ... 102000
2) C[n+]1nn(Cc2cccc(Cl)c2)c2c3ccsc3ccc21 ... 2700

Fill in IC50 for each of the 2 molecules listed.
1. C[n+]1nn(Cc2ccc(Cl)cc2)c2c3ccsc3ccc21
2. Cc1ccc(Cn2n[n+](C)c3ccc4sccc4c32)cc1

Resp:
1: 470; 2: 1000

* * *

Molecular target: butyrylcholinesterase from equine serum (eqBChE, E.C. 3.1.1.8) (Equus caballus, UniProt P81908)
Construct: butyrylcholinesterase from equine serum (eqBChE, E.C. 3.1.1.8); purchased Sigma Aldrich; host or cells: equine serum
Assay: biochemical
Settings: eqBChE, Ellman assay, triplicate
readout: IC50 (µM)
Give bare numbers, in µM.

Example entries begin here.
1) Clc1ccc(Cn2nnc3ccc4sccc4c32)cc1 ... 34.6
2) Cc1cccc(Cn2nnc3ccc4sccc4c32)c1 ... 2.9

For every item below, please supply its IC50.
1. Cc1cc2c(ccc3nnn(Cc4cccc(F)c4)c32)s1
2. Cc1cc2c(ccc3nnn(Cc4ccc(Cl)cc4)c32)s1
3. COc1cccc(Cn2nnc3ccc4sc(C)cc4c32)c1

Resp:
172
59
90.2

* * *

Target: UniProt:O42275
Assay: biochemical
Conditions: eeAChE, Ellman assay, triplicate
readout: pIC50
Numbers only, as −log10 of the molar value.

1. Cc1cc2c(ccc3c2n(Cc2ccc(Cl)cc2)n[n+]3C)s1 [Compound 26] ... 5.09
2. COc1cccc(Cn2nnc3ccc4sc(C)cc4c32)c1 [Compound 20] ... 3.73

Below are some compounds; for each one, tell me its pIC50.
1. Cc1cccc(Cn2n[n+](C)c3ccc4sc(C)cc4c32)c1 [Compound 27]
2. Cc1cccc(Cn2nnc3ccc4sccc4c32)c1 [Compound 16]
3. C[n+]1nn(Cc2ccco2)c2c3ccsc3ccc21 [Compound 31]

Resp:
[5.08, 4.11, 3.80]

Batch lookup, pIC50 per entry.
1. Cc1ccc(Cn2nnc3ccc4sccc4c32)cc1 [Compound 14]
2. Cc1cccc(Cn2n[n+](C)c3ccc4sccc4c32)c1 [Compound 24]
3. Cc1cc2c(ccc3nnn(Cc4cccc(F)c4)c32)s1 [Compound 21]

Resp:
3.93
4.26
3.33

Items follow; give pIC50 for each.
1. Clc1ccc(Cn2nnc3ccc4sccc4c32)cc1 [Compound 15]
2. COc1cccc(Cn2n[n+](C)c3ccc4sc(C)cc4c32)c1 [Compound 28]

Resp:
[4.11, 4.26]
